- TARGET: T1, stabilized human C3bBb complex comprising the Bb subunit of the FB protein of SEQ ID NO: 3 (triple mutant), … (human, UniProt P01024 23-667; P00751 260-764; P01024 749-1663, limits assumed, biotinylated with EZ-Link HPDP-Biotin (Cys))
- T1 construct: also called C3bBb (D279G/350N/M458I); C3bBb triple mutant-HPDP
- T1 sequence (P01024 23-667 limits assumed, stated change not applied, chain 1 of 3): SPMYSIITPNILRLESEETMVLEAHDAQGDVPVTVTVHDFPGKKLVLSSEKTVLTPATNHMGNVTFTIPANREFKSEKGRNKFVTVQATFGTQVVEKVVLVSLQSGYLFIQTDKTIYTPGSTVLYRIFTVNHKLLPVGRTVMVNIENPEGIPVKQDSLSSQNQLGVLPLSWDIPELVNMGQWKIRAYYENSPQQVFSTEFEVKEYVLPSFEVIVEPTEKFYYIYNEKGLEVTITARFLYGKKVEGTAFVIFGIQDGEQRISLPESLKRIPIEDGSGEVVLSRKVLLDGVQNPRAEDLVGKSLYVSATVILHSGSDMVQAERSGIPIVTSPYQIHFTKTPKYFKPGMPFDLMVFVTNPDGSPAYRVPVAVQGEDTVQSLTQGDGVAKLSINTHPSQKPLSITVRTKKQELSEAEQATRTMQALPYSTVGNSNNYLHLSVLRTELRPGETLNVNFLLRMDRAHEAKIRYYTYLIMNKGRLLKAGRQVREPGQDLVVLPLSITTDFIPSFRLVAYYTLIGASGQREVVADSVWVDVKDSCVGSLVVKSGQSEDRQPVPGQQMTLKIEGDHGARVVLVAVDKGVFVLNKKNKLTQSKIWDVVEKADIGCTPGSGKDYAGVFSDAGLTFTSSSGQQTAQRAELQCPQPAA
- T1 sequence (P00751 other isoform, or with tags, fused parts or gaps mutant limits assumed, chain 2 of 3): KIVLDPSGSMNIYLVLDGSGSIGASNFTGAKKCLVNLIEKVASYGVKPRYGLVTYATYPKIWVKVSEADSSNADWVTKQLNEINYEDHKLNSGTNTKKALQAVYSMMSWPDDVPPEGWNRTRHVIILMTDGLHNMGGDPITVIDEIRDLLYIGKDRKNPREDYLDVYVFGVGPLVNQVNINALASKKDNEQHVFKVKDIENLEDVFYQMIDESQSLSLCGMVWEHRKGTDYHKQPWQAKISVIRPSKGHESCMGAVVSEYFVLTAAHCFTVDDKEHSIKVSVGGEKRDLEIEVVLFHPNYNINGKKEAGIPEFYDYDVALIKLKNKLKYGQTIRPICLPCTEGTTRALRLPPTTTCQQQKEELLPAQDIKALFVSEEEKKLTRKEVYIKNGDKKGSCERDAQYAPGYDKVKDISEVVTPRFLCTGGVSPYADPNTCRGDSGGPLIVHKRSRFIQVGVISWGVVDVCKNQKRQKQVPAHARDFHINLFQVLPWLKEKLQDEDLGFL
- T1 sequence (P01024 749-1663 limits assumed, stated change not applied, chain 3 of 3): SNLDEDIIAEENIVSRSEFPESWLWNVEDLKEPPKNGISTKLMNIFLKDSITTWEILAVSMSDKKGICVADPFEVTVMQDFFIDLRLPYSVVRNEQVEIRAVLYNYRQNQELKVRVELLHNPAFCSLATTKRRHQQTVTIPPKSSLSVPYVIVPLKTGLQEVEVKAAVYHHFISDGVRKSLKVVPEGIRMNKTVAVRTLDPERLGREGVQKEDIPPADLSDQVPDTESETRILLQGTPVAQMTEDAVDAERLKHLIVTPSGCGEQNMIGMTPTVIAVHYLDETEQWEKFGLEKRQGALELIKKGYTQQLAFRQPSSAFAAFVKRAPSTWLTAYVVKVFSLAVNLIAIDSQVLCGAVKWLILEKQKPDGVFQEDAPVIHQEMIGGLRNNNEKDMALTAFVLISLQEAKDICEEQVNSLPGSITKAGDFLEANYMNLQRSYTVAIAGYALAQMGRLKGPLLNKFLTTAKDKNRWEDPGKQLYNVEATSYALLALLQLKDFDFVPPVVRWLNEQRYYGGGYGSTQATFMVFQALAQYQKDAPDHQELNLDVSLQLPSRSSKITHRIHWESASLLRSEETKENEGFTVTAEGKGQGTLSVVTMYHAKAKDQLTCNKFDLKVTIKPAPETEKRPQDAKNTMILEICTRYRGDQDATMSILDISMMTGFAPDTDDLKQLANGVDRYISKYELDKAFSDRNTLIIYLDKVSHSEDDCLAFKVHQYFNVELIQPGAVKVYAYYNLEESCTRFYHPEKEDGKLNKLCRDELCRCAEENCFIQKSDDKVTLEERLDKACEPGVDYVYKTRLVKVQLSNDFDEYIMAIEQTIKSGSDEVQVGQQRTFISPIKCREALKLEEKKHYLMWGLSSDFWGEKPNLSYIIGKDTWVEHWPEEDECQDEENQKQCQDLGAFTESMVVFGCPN
- ASSAY INFO: ELISA, biotinylated C3bBb on streptavidin plate, Fab supernatant, anti kappa/anti T7 HRP
OD (370 nm) listing for selected binders.
REPORTED ENDPOINT: OD (370 nm)

C3bBb.P045.072 (Fab, V domains shown, Tested as soluble Fab in E. coli supernatant with a T7 tag at the C-terminus of the Fab CH1 domain; detected with anti human kappa) VH: KLQLVESGGGLVKPGGSLRLSCAASGRRFGVQDMSWVRQAPGKGLEWVGSISPKGDHKYLNTKFIGRFTISRDNSKNTLYLQMNSLRAEDTAVYYCARDWGYFDQWGQGTLVTVSS VL: AIQMTQSPSSLSASVGDRVTITCHGSYWLSSEVAWYQQKPGKAPKLLIYDGNGIIGNVPSRFSGSGSHEDYTLTISSLQPEDFATYYCQQYRYHPYTFGHGTKVEIK : 2.9 OD
C3bBb.P055.015 (Fab, V domains shown, Tested as soluble Fab in E. coli supernatant with a T7 tag at the C-terminus of the Fab CH1 domain; detected with anti human kappa) VH: GQLVESGGGLVKPGGSLRLSCKASGFYWGPGAMSWVRQAPGKGLEWVGSISPKGGSAEYASKVYGRFTISRDNNQDTLYLQMNSLRAEDTAVYYCARDIGFFDTWGQGTLVTVSS VL: DYQMTQSPSSLSASVGDRVTITCEAHSQISNYLAWYQQKPGKAPKLLIFDAKYRAPEVPSRFSGSGSGPDFTLTISSLQPEDFATYYCQQYNDFWLTFGQGTKVEIK : -0.01 OD
C3bBb.P048.061 (Fab, V domains shown, Tested as soluble Fab in E. coli supernatant with a T7 tag at the C-terminus of the Fab CH1 domain; detected with anti human kappa) VH: GQLVESGGGLVKPGGSLRLSCKASGFYWGPGAMSWVRQAPGKGLEWVGSISPKGGSTDINPKIGGRFTISRDNNQDTLYLQMNSLRAEDTAVYYCARDIGFFDTWGQGTLVTVSS VL: AIQMTQSPSSLSASVGDRVTITCQGSWLISNYLAWYQQKPGKAPKLLIFDAKYRAPEVPSRFSGSGSGTDFTLTISSLQPEDFATYYCQQYGGRLLTFGQGTKVEIK : 1.9 OD
C3bBb.P048.127 (Fab, V domains shown, Tested as soluble Fab in E. coli supernatant with a T7 tag at the C-terminus of the Fab CH1 domain; detected with anti human kappa) VH: GQLVESGGGLVKPGGSLRLSCKASGFYWGPGAMSWVRQAPGKGLEWVGSISPKGGSTEYNTKVYGRFTISRDNNQDTLYLQMNSLRAEDTAVYYCARDIGFFDTWGQGTLVTVSS VL: HQMTQSPSSLSASVGDRVTITCDGEWDISNYLAWYQQKPGKAPKLLIFDAKYRAPEVPSRFSGSGSGRDFTLTISSLQPEDFATYYCQQYNRMYFTFGQGTKVEIK : 0.187 OD
